Test system: Escherichia coli
Test: Antibacterial activity against Escherichia coli at 100 ug/ml after 24 hrs by agar well diffusion method
Assay type: functional
Conditions: read-out: DIZ
Assay Metric: zone of inhibition at 100 µg/mL (mm)
The answer is to be given in mm; state only the numeric part.

Consider the reported zone of inhibition at 100 µg/mL for these molecules:
- Smiles Structure: "Cc1cccc2nc(N/N=C/c3ccc([N+](=O)[O-])cc3)sc12"
  zone of inhibition at 100 µg/mL [mm]: 14
- Smiles Structure: "Cc1cccc2nc(N/N=C/c3ccc(O)cc3O)sc12"
  zone of inhibition at 100 µg/mL [mm]: 20

Problem: Give the measured zone of inhibition at 100 µg/mL for COc1ccc(/C=N/Nc2nc3cccc(C)c3s2)cc1
Solution: 10

Problem: Give me measured zone of inhibition at 100 µg/mL, please, for this molecule: Cc1cccc2nc(N/N=C/c3ccc(F)cc3F)sc12
Solution: 14

Problem: Give the measured zone of inhibition at 100 µg/mL for Cc1cccc2nc(N/N=C/c3ccc(O)cc3Br)sc12
Solution: 16

Problem: Answer with reported zone of inhibition at 100 µg/mL of Cc1cccc2nc(N/N=C/c3ccc[nH]3)sc12
Solution: 24

Problem: Return the recorded zone of inhibition at 100 µg/mL value; entry: COc1cc(/C=N/Nc2nc3cccc(C)c3s2)ccc1O
Solution: 27

###

System: Bacillus subtilis
Experiment: Antibacterial activity against Bacillus subtilis at 25 ug/ml after 24 hrs by agar well diffusion method
Assay type: functional
Details: read-out: DIZ
Assay Metric: zone of inhibition at 25 µg/mL (mm)
Write it as a number; the unit mm goes unstated.

- Molecule: "Cc1cccc2nc(N/N=C/c3cccs3)sc12"
  Target Entity: "Bacillus subtilis"
  Result Units: "mm"
  zone of inhibition at 25 µg/mL: 10

Problem: Supply reported zone of inhibition at 25 µg/mL belonging to this molecule: O=C(N[C@H](CO)[C@H](O)c1ccc([N+](=O)[O-])cc1)C(Cl)Cl [CHLORAMPHENICOL]
Solution: 21

Problem: Consider the molecule Cc1cccc2nc(N/N=C/c3ccc(Cl)cc3Cl)sc12 . State its measured zone of inhibition at 25 µg/mL.
Solution: 4

###

Test system: Aspergillus niger
Assay: Antifungal activity against Aspergillus niger at 100 ug/ml after 48 hrs by agar well diffusion method
Type: functional
Settings: read-out: DIZ
# reported zone of inhibition at 100 µg/mL; entries follow
Answer with a number only, understood to be in mm.

// known answers, use as guide
- Compound: "COc1ccc(/C=N/Nc2nc3cccc(C)c3s2)cc1"
  Result Units: "mm"
  zone of inhibition at 100 µg/mL: 16
- Compound: "Cc1cccc2nc(N/N=C/c3ccc([N+](=O)[O-])cc3[N+](=O)[O-])sc12"
  Result Units: "mm"
  zone of inhibition at 100 µg/mL: 32
- Compound: "CC(=O)N1CCN(c2ccc(OCC3COC(Cn4ccnc4)(c4ccc(Cl)cc4Cl)O3)cc2)CC1 (stereo not given)"
  Result Units: "mm"
  zone of inhibition at 100 µg/mL: 37
- Compound: "Cc1cccc2nc(N/N=C/c3cc(O)c(O)c(O)c3)sc12"
  Result Units: "mm"
  zone of inhibition at 100 µg/mL: 23
- Compound: "Cc1cccc2nc(N/N=C/c3ccco3)sc12"
  Result Units: "mm"
  zone of inhibition at 100 µg/mL: 22
- Compound: "Cc1cccc2nc(N/N=C/c3ccc(Cl)cc3Cl)sc12"
  Result Units: "mm"
  zone of inhibition at 100 µg/mL: 33

Problem: Specify zone of inhibition at 100 µg/mL for Cc1cccc2nc(N/N=C/c3ccc(O)cc3O)sc12 and stop.
Solution: 21

Problem: For the compound Cc1cccc2nc(N/N=C/c3ccncc3)sc12 , give its reported zone of inhibition at 100 µg/mL.
Solution: 16

Problem: # return recorded zone of inhibition at 100 µg/mL for input Cc1cccc2nc(N/N=C/c3ccc(F)cc3)sc12
Solution: 22

Problem: Look up zone of inhibition at 100 µg/mL of Cc1cccc2nc(N/N=C/c3ccc(Br)cc3)sc12 and report it.
Solution: 28

Problem: Give the measured zone of inhibition at 100 µg/mL for Cc1cccc2nc(N/N=C/c3cccs3)sc12
Solution: 26
